System: NFS-60
Method Description: Antiproliferative activity against mouse NFS-60 cells transfected with human ETV6-CSF1R assessed as reduction in cell viability measured after 72 hrs by MTS method
Assay type: functional, cell-based
Setup Conditions: NFS-60, 72 h
Readout Name: log10(EC50) (log10 of the value in nM)
Field: value | Transform: log10 | Quantity: EC50 | Unit: nM

CN(C)c1ccc2c(Oc3ccc(NC(=O)NCc4ccc(F)cc4)cc3)ncnc2c1	1.84
CN(C)c1ccc2c(Oc3ccc(NC(=O)NCc4ccc(S(N)(=O)=O)cc4)cc3)ncnc2c1	3.04
COc1ccc(NC(=O)Nc2ccc(Oc3ncnc4cc(N(C)C)ccc34)cc2)cc1	1.36
FC(F)(F)c1ccc(CNc2ccc(Cc3c[nH]c4ncc(Cl)cc34)cn2)cn1 [PEXIDARTINIB]	2.47
COc1ccc(Cl)cc1NC(=O)Nc1ccc(Oc2ncnc3cc(N(C)C)ccc23)cc1	2.15
COc1ccc(CNC(=O)Nc2ccc(Oc3ncnc4cc(N(C)C)ccc34)cc2)cc1	1.91

# log10(EC50) of CN(C)c1ccc2c(Oc3ccc(NC(=O)NCc4ccc(C(F)(F)F)nc4)cc3)ncnc2c1 = 1.98

# log10(EC50) of COc1cccc(NC(=O)Nc2ccc(Oc3ncnc4cc(N(C)C)ccc34)cc2)c1 = 2.03

# log10(EC50) of CN(C)c1ccc2c(Oc3ccc(NC(=O)Nc4cccc(Cl)c4)cc3)ncnc2c1 = 1.74

# log10(EC50) of CN(C)c1ccc2c(Oc3ccc(NC(=O)Nc4ccccc4Cl)cc3)ncnc2c1 = 2.16

# log10(EC50) of COc1cc(Oc2ccnc3cc(OC)c(OC)cc23)ccc1NC(=O)NC(C)c1nccs1 (stereo not given) = 1.89

# log10(EC50) of COc1ccc(NC(=O)Nc2ccc(Oc3ncnc4cc(N(C)C)ccc34)cc2)cc1Cl = 1.72

# log10(EC50) of CN(C)c1ccc2c(Oc3ccc(NC(=O)NCc4ccc(C#N)cc4)cc3)ncnc2c1 = 1.36

# log10(EC50) of Cc1ccc(CNC(=O)Nc2ccc(Oc3ncnc4cc(N(C)C)ccc34)cc2)cn1 = 1.83

# log10(EC50) of CN(C)c1ccc2c(Oc3ccc(NC(=O)NCc4ccc(C(F)(F)F)cc4)cc3)ncnc2c1 = 1.99

# log10(EC50) of CN(C)c1ccc2c(Oc3ccc(NC(=O)NCc4ccccc4)cc3)ncnc2c1 = 1.76

# log10(EC50) of COc1ccccc1NC(=O)Nc1ccc(Oc2ncnc3cc(N(C)C)ccc23)cc1 = 2.16

* * *

Test system: BaF3
Method Description: Antiproliferative activity against mouse BaF3 cells transfected with human ETV6-CSF1R assessed as reduction in cell viability measured after 72 hrs by MTS method
Setup Conditions: BaF3, 72 h
One threshold, 0.09 µM, splits the recorded EC50 values: lower ones are condition met, equal or higher ones are condition not met.

Look over these answered cases.
CN(C)c1ccc2c(Oc3ccc(NC(=O)Nc4cccc(Cl)c4)cc3)ncnc2c1	condition met
COc1ccccc1NC(=O)Nc1ccc(Oc2ncnc3cc(N(C)C)ccc23)cc1	condition not met
CN(C)c1ccc2c(Oc3ccc(NC(=O)NCc4ccn(C)n4)cc3)ncnc2c1	condition not met
CN(C)c1ccc2c(Oc3ccc(NC(=O)NCc4nccs4)cc3)ncnc2c1	condition not met

Is 0.09 µM strictly greater than the compound's reported EC50? compound: CN(C)c1ccc2c(Oc3ccc(NC(=O)Nc4ccccc4)cc3)ncnc2c1
condition met

Is 0.09 µM strictly greater than the compound's reported EC50? compound: COc1ccc(Cl)cc1NC(=O)Nc1ccc(Oc2ncnc3cc(N(C)C)ccc23)cc1
condition met

Is 0.09 µM strictly greater than the compound's reported EC50? compound: COc1ccc(CNC(=O)Nc2ccc(Oc3ncnc4cc(N(C)C)ccc34)cc2)cn1
condition met

Is 0.09 µM strictly greater than the compound's reported EC50? compound: CN(C)c1ccc2c(Oc3ccc(NC(=O)NCc4ccc(C(F)(F)F)cc4)cc3)ncnc2c1
condition not met

Is 0.09 µM strictly greater than the compound's reported EC50? compound: CC(NC(=O)Nc1ccc(Oc2ncnc3cc(N(C)C)ccc23)cc1)c1nccs1 (stereo not given)
condition not met

Is 0.09 µM strictly greater than the compound's reported EC50? compound: COc1ccc(CNC(=O)Nc2ccc(Oc3ncnc4cc(N(C)C)ccc34)cc2)cc1OC
condition not met

Is 0.09 µM strictly greater than the compound's reported EC50? compound: CN(C)c1ccc2c(Oc3ccc(NC(=O)NCc4ccc(F)cc4)cc3)ncnc2c1
condition met

Is 0.09 µM strictly greater than the compound's reported EC50? compound: CN(C)c1ccc2c(Oc3ccc(NC(=O)NCc4cccnc4)cc3)ncnc2c1
condition met

Is 0.09 µM strictly greater than the compound's reported EC50? compound: CN(C)c1ccc2c(Oc3ccc(NC(=O)NCc4ccc(C#N)cc4)cc3)ncnc2c1
condition met

Is 0.09 µM strictly greater than the compound's reported EC50? compound: CN(C)c1ccc2c(Oc3ccc(NC(=O)Nc4ccc(Cl)cc4)cc3)ncnc2c1
condition met

Is 0.09 µM strictly greater than the compound's reported EC50? compound: CN(C)c1ccc2c(Oc3ccc(NC(=O)NCCc4ccccc4)cc3)ncnc2c1
condition met

Is 0.09 µM strictly greater than the compound's reported EC50? compound: CN(C)c1ccc2c(Oc3ccc(NC(=O)NCc4ccc(C(F)(F)F)nc4)cc3)ncnc2c1
condition met

Is 0.09 µM strictly greater than the compound's reported EC50? compound: CN(C)c1ccc2c(Oc3ccc(NC(=O)NCc4ccccc4)cc3)ncnc2c1
condition met

Is 0.09 µM strictly greater than the compound's reported EC50? compound: CN(C)c1ccc2c(Oc3ccc(NC(=O)Nc4cccc(C(F)(F)F)c4)cc3)ncnc2c1
condition met

Is 0.09 µM strictly greater than the compound's reported EC50? compound: FC(F)(F)c1ccc(CNc2ccc(Cc3c[nH]c4ncc(Cl)cc34)cn2)cn1
condition not met

Is 0.09 µM strictly greater than the compound's reported EC50? compound: CN(C)c1ccc2c(Oc3ccc(NC(=O)Nc4ccc(C(F)(F)F)cc4)cc3)ncnc2c1
condition met

* * *

Assay System: Aurora kinase B (Homo sapiens, UniProt Q96GD4)
Sequence (Q96GD4 whole entry): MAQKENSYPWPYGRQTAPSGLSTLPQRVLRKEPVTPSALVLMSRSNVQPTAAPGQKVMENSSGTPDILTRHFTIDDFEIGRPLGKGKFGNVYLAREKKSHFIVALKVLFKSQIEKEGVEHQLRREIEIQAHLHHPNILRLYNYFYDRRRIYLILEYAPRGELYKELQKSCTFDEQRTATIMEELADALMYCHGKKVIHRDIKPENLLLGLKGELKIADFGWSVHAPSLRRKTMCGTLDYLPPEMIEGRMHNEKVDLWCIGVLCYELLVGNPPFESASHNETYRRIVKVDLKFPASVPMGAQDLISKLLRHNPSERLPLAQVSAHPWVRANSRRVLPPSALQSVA
Method Description: Inhibition of human recombinant full length GST-AURKB using tetra(-LRRASLG) peptide as substrate at 0.1 uM incubated for 20 mins by ATP Kinase Glo assay
Format: biochemical
Setup Conditions: Sf9
Readout Name: inhibition (%)
Please respond with the number in % and leave the unit unwritten.

Examples from the recorded data:
COc1ccc2c(Nc3ccc(NC(=O)Nc4ccccc4)cc3)ncnc2c1	24
CN(C)c1ccc2c(Oc3ccc(NC(=O)Nc4ccccc4)cc3)ncnc2c1	61
CNc1ccc2c(Oc3ccc(NC(=O)Nc4ccccc4)cc3)ncnc2c1	76

# inhibition of CN(C)c1ccc2c(Oc3ccc(NC(=O)NCc4nccs4)cc3)ncnc2c1 = 19

# inhibition of CN(C)c1ccc2c(Oc3ccc(NC(=O)NCc4ccc(C(F)(F)F)cc4)cc3)ncnc2c1 = 25

* * *

Tested on: NFS-60
Method Description: Antiproliferative activity against mouse NFS-60 cells transfected with human ETV6-CSF1R assessed as reduction in cell viability measured after 72 hrs by MTS method
Format: functional, cell-based
Setup Conditions: NFS-60, 72 h
EC50 overview
# output: numeric value plus its unit

Examples from the recorded data:
CN(C)c1ccc2c(Oc3ccc(NC(=O)Nc4ccc(Cl)cc4)cc3)ncnc2c1	25 nM
CN(C)c1ccc2c(Oc3ccc(NC(=O)NCCc4ccccc4)cc3)ncnc2c1	162 nM

Kindly consider the entry below.
# EC50 of CN(C)c1ccc2c(Oc3ccc(NC(=O)NCc4nccs4)cc3)ncnc2c1 = 202 nM

* * *

Assay System: Macrophage colony-stimulating factor 1 receptor (Homo sapiens)
Sequence (P07333 whole entry, the tested form may be a part): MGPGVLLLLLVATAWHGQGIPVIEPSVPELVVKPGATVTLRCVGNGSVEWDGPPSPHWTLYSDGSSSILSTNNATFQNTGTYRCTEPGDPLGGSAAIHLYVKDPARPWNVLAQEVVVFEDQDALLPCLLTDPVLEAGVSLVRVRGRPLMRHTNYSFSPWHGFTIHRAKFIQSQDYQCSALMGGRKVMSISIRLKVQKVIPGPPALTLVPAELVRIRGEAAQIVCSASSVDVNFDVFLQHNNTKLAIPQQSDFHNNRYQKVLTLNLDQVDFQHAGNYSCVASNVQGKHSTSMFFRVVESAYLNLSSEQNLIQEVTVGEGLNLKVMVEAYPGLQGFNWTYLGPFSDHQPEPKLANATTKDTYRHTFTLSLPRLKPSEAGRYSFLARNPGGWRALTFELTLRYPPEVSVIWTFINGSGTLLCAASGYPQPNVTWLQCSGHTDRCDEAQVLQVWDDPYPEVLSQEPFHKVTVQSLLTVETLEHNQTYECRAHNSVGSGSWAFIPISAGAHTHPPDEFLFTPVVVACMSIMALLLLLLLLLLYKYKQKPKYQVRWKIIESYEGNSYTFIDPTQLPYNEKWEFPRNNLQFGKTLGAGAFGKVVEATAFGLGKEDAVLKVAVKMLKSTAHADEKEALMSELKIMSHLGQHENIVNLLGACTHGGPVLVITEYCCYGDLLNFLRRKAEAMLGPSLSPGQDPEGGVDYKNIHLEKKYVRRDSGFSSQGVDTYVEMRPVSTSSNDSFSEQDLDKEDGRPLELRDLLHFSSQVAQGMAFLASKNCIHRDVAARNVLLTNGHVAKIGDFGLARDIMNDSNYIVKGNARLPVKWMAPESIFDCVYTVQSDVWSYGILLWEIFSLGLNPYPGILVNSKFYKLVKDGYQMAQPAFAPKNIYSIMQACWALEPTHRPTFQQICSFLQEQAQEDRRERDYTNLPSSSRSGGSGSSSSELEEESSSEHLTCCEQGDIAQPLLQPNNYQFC
Method Description: Inhibition of human recombinant GST-CSF1R (residues L534 to C972) expressed in Sf9 insect cells using poly(Glu,Tyr) as substrate incubated for 20 mins by ATP Kinase Glo assay
pIC50: −log10 of the molar value.
Would you mind labelling by pIC50? At or over 7 is true, under is false.

Look over these answered cases.
COc1cc2ncnc(Oc3ccc(NC(=O)Nc4ccccc4)cc3)c2cc1OC	true
COc1ccc(NC(=O)Nc2ccc(Oc3ncnc4cc(N(C)C)ccc34)cc2)cc1	true

Record CN(C)c1ccc2c(Oc3ccc(NC(=O)NCc4ccc(S(N)(=O)=O)cc4)cc3)ncnc2c1 ; criterion: pIC50 no lower than 7. Met?
true

Record Cc1ccc(CNC(=O)Nc2ccc(Oc3ncnc4cc(N(C)C)ccc34)cc2)cn1 ; criterion: pIC50 no lower than 7. Met?
true

Record CN(C)c1ccc2c(Oc3ccc(NC(=O)NCc4ccc(C#N)cc4)cc3)ncnc2c1 ; criterion: pIC50 no lower than 7. Met?
true

Record CN(C)c1ccc2c(Nc3ccc(NC(=O)Nc4ccccc4)cc3)ncnc2c1 ; criterion: pIC50 no lower than 7. Met?
false

* * *

EC50 overview
Test system: BaF3
Method Description: Antiproliferative activity against mouse BaF3 cells transfected with human ETV6-CSF1R assessed as reduction in cell viability measured after 72 hrs by MTS method
Setup Conditions: BaF3, 72 h
Please respond with the number in nM and leave the unit unwritten.

Examples from the recorded data:
CN(C)c1ccc2c(Oc3ccc(NC(=O)Nc4ccccc4Cl)cc3)ncnc2c1	66
COc1ccc(NC(=O)Nc2ccc(Oc3ncnc4cc(N(C)C)ccc34)cc2)cc1	23
COc1ccc(NC(=O)Nc2ccc(Oc3ncnc4cc(N(C)C)ccc34)cc2)cc1Cl	43

Kindly consider the entry below.
# EC50 of CN(C)c1ccc2c(Oc3ccc(NC(=O)NCc4ccc(S(N)(=O)=O)cc4)cc3)ncnc2c1 = 662
